# TEST TARGET: CYP3A4 (Homo sapiens, UniProt P08684)
# Sequence (P08684 whole entry): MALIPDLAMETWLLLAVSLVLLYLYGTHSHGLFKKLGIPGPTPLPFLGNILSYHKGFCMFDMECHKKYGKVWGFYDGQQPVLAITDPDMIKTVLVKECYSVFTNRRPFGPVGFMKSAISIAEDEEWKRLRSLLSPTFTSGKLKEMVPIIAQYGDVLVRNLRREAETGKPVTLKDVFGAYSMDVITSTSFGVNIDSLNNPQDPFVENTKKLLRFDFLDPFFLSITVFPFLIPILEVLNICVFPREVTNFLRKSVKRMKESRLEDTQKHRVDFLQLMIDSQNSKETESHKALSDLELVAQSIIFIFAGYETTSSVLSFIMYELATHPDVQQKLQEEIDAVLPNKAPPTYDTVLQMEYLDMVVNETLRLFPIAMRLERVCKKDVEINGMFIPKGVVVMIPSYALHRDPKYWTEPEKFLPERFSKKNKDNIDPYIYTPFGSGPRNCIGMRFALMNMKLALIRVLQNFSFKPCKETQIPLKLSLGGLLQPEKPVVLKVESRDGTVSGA
# PROTOCOL SUMMARY: Inhibition of CYP3A4 in human microsomes preincubated at 10 uM for 5 mins before substrate addition measured after 10 mins by LC/MS/MS analysis
# Type: ADME
VALUE KIND: inhibition at 10 min, 10 µM (%)
Your answer should be a plain number; it is taken to be in %.

Inquiry: Return value of inhibition at 10 min, 10 µM for input CNC(=O)[C@@]12C[C@@H]1[C@@H](n1cnc3c(NC)nc(C#Cc4ccc(Br)s4)nc31)[C@H](O)[C@@H]2O , no commentary.
Reply text: 3.1
